Listed here: items and their measured FACS-Seq fitted mean (log10).
B1: library; a variant is named by its letters at N, in order (parent)
chain: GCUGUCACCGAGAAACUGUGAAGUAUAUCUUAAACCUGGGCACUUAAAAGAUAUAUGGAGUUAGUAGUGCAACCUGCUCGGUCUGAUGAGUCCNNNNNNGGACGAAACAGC

Variants of: B1
assay_protocol: FACS-Seq fitted mean relative fluorescence mCherry/BFP without ligand (log10 relative fluorescence); HEK293T; ligand: cyclic di-GMP (c-di-GMP-II aptamer); higher = higher reporter protein expression
assay_context: ligand present: no
# print the numeric value only

{"columns": ["variant_annotation", "FACS-Seq fitted mean (log10)"],
 "data": [
  ["ACUCCC", -0.621],
  ["GCUUAG", -0.473],
  ["AUGAAC", -0.0137],
  ["UAAAUU", 0.0621],
  ["UAUGAA", -0.265],
  ["CCGGGG", -0.589]
]}

AGAACA yielded FACS-Seq fitted mean (log10) of 0.105

UACCCU yielded FACS-Seq fitted mean (log10) of -0.513

CAAUAA yielded FACS-Seq fitted mean (log10) of -0.688

AGCACG yielded FACS-Seq fitted mean (log10) of -0.192

CGGAAA yielded FACS-Seq fitted mean (log10) of -0.619

CAGCCA yielded FACS-Seq fitted mean (log10) of -0.196

GAGUUG yielded FACS-Seq fitted mean (log10) of -0.0245
